- TEST_METHOD_NOTES: blockers of mitochondrial fusion, WT vs mutant – cell-based, chemical genetic, wild-type and mutant, confirmation (AID 1361)
- CONDITION_CONTEXT: Cell-based mitochondrial fusion phenotype, imaging, WT cells
The source made the active and inactive calls. No rule for the calls is given here.
ASSAY_METRIC: IC50

Please review the following examples before continuing.
COMPOUND	IC50
CCCCC(=O)NC(=S)Nc1ccccc1N1CCCCC1	19.8 µM
COc1ccccc1CN=Cc1[nH]c2ccc(Br)c(Cl)c2c1O	> 25 µM (inactive)
COc1ccccc1CNC(=O)c1ccc(-c2ccccc2C(F)(F)F)o1	21.3 µM
O=C(NCc1nnc(SCc2ccc(C(F)(F)F)cc2)n1-c1ccccc1)C12CC3CC(CC(C3)C1)C2	18 µM
COc1ccc(NP(=O)(Oc2ccc(Cl)cc2)Oc2ccc(Cl)cc2)cc1OC	12.6 µM
CC12CCC(c3c(C(=O)O)nn(-c4ccc(F)cc4)c31)C2(C)C (centres undefined)	> 25 µM (inactive)
Cc1nc(N2CCCCC2)c2c(C)c(C(=O)Nc3ccccc3C(F)(F)F)sc2n1	> 25 µM (inactive)
C=C(C)c1cccc(C(C)(C)NC(=O)Nc2ccc(Cl)cn2)c1	12.8 µM
c1ccc(-c2nc(N3CCCCC3)nc3ccccc23)cc1	18.3 µM
CN1CCC2(CC1)Nc1nc(SCc3ccc(Cl)cc3)nn1C1=C2CN(C)CC1	> 25 µM (inactive)

Query block: For `CCCn1nnc(NC(=O)c2ccc(-c3cccc(Cl)c3)o2)n1` , what is its reported IC50?
Result block: > 25 µM (inactive)

Query block: State the recorded IC50 for this entry: `CCOC(=O)C1CCN(S(=O)(=O)c2c(C)n[nH]c2C)CC1`
Result block: > 25 µM (inactive)

Query block: // IC50 lookup, key: `Cc1cccc(NC(=S)NNC(=O)COc2ccc(Cl)cc2Cl)c1`
Result block: 10.9 µM

Query block: I'd like to know its IC50. The compound in question is `NC(=O)c1ccc(NC(=O)CCCN2C(=O)c3ccccc3C2=O)cc1`
Result block: > 25 µM (inactive)

###

- TEST_METHOD_NOTES: blockers of mitochondrial fusion, WT vs mutant – cell-based, chemical genetic, wild-type and mutant, confirmation (AID 1361)
- CONDITION_CONTEXT: Cell-based mitochondrial fusion phenotype, imaging, WT cells
The source made the active and inactive calls. How the calls were made is not given here.
Outcomes you can answer with include only these: active, inactive

Query block: Check the results log: what was the call for CC1(C)CC(C(CCN(Cc2ccccc2)C(=O)c2ccco2)c2ccc(F)cc2)CCO1 (stereo unspecified) ?
Result block: active

Query block: What outcome does the record of this test show for `Cc1cc(=O)n2[nH]c(-c3ccc(F)cc3)cc2n1` ?
Result block: inactive

Query block: Identify the outcome logged in this assay for the molecule shown: `OCCNc1c2c(nc3ccccc13)CCCC2`
Result block: inactive

###

- TEST_METHOD_NOTES: blockers of mitochondrial fusion, WT vs mutant – cell-based, chemical genetic, wild-type and mutant, confirmation (AID 1361)
- CONDITION_CONTEXT: Cell-based mitochondrial fusion phenotype, imaging, WT cells
Calls of active or inactive are those of the source. How the calls were made is not given here.
The reply should be one of these categories: true (1) = active, false (0) = inactive

Example entries begin here.
COMPOUND	CAT
CCCCOC(=O)Nc1cccc(C(=O)OCC)c1	false (0)
Cc1ccc(/C=C/C(=O)N2CCC(Cc3ccccc3)CC2)cc1	true (1)
O=C1N(O)C2(C=CCCC2)/C(=N\O)C12CCCCC2 (stereo not drawn)	false (0)
Cc1ccc(-n2nc3c(c2NC(=O)c2ccc4c(c2)OCO4)CSC3)c(C)c1	false (0)
Cc1cnc(C(=O)OCC(=O)Nc2ccc(Cl)cc2)cn1	false (0)

Query block: Status in this test for `CCCC[C@@H]1C[C@H]1[C@@H](NC(=O)c1cccs1)c1ccc(Cl)cc1` ?
Result block: true (1)

Query block: Assay result, entry `O=C(c1cnc(-c2ccc(Cl)cc2)s1)c1ccc(Cl)cc1Cl` — outcome?
Result block: true (1)

Query block: Tell me the assay call for `O=C(CNC(=S)N(Cc1ccccc1)Cc1cccs1)NCc1ccc(F)cc1` please.
Result block: false (0)

Query block: Outcome logged for O=C(CCn1nc(-c2ccccc2)c2ccccc2c1=O)NCC1CCCO1 (stereo not drawn) in this assay:
Result block: false (0)

Query block: Please indicate how the test categorized `CCCNC(=S)Nc1ccc2nc(-c3ccccn3)c(-c3ccccn3)nc2c1` .
Result block: false (0)

Query block: For `CCOc1ccc(-c2nc(N)ncc2Oc2ccccc2Br)c(O)c1` , what call appears in the results of this test?
Result block: false (0)

Query block: Which result was noted for this compound in the test: `Cc1cc(NC(=O)C2CCCCC2)nc2c1c(=O)oc1ccccc12`
Result block: true (1)

###

- TEST_METHOD_NOTES: blockers of mitochondrial fusion, WT vs mutant – cell-based, chemical genetic, wild-type and mutant, confirmation (AID 1361)
- CONDITION_CONTEXT: Cell-based mitochondrial fusion phenotype, imaging, WT cells
Calls of active or inactive are those of the source. How the calls were made is not given here.
Respond using exactly one of the listed classes: active, inactive

Take a look at these entries with their results.
MOLECULE	CAT
CCc1cc(C(=O)Cc2ccc(F)cc2)c(O)cc1O	inactive
O=C1NC(=O)C(CCc2ccncc2)(Cc2cccc(Cl)c2Cl)C(=O)N1c1ccc(Br)cc1 (stereo not drawn)	active
CC(C)CN(C(=O)c1nn(C)c(=O)c2ccccc12)c1nc2ccccc2s1	active
COc1ccc(-c2[nH]c(-c3cc(OC)c4c(c3)OCO4)nc2-c2ccccc2)cc1	active

Attention now shifts to the item below.
Query block: Outcome? `CCCn1c(CN(Cc2ccccc2)Cc2ccccc2)nc2c1c(=O)n(C)c(=O)n2C`
Result block: active

###

- TEST_METHOD_NOTES: blockers of mitochondrial fusion, WT vs mutant – cell-based, chemical genetic, wild-type and mutant, confirmation (AID 1361)
- CONDITION_CONTEXT: Cell-based mitochondrial fusion phenotype, imaging, WT cells
Activity calls are given as the source filed them. The rule behind the calls is not given here.
Answer with one of the outcomes true (active), false (inactive)

Examples from the recorded data:
COMPOUND	CAT
CCCN(CCC)C(=O)CC(c1ccccc1)c1cc(Br)ccc1O (stereo unspecified)	true
CCOC(=O)N1CCN(CC(O)COC2CC(C)CCC2C(C)C)CC1 (stereo unspecified)	false

Query block: Recorded call for `O=C(Nc1ccc(C(O)(C(F)(F)F)C(F)(F)F)cc1)c1ccc(Cl)c([N+](=O)[O-])c1` ?
Result block: true

Query block: // return assay outcome for O=C1CCCCC1C(Nc1ccc(Br)cc1)c1ccccc1 (stereo unspecified)
Result block: true

Query block: Returns: the outcome recorded for CCCCOP(=O)(OCCCC)C(Nc1ccccc1)c1ccc2c(c1)OCO2 (stereo unspecified) in this assay.
Result block: true

Query block: Please let me know the test result on file for CCCC(NC(=S)NCC1CCCO1)C12CC3CC(CC(C3)C1)C2 (stereo unspecified) .
Result block: true

###

- TEST_METHOD_NOTES: blockers of mitochondrial fusion, WT vs mutant – cell-based, chemical genetic, wild-type and mutant, confirmation (AID 1361)
- CONDITION_CONTEXT: Cell-based mitochondrial fusion phenotype, imaging, WT cells
The source made the active and inactive calls. The rule behind the calls is not given here.
Respond using exactly one of the listed classes: true = active, false = inactive

COMPOUND	CAT
CC(=O)Oc1ccccc1N(C(C)=O)S(=O)(=O)c1ccc2ccccc2c1	false

Query block: Could you kindly confirm the outcome this assay logged for COc1ccc(-c2cc3nc(C)cc(N4CC(C)CC(C)C4)n3n2)cc1 (stereo not drawn) ?
Result block: true

###

- TEST_METHOD_NOTES: blockers of mitochondrial fusion, WT vs mutant – cell-based, chemical genetic, wild-type and mutant, confirmation (AID 1361)
- CONDITION_CONTEXT: Cell-based mitochondrial fusion phenotype, imaging, WT cells
The source made the active and inactive calls. No rule for the calls is given here.
ASSAY_METRIC: IC50

A selection of reference data follows.
COMPOUND	IC50
COc1ccccc1CNC(=O)c1ccccc1OCc1ccc(F)cc1	21.8 µM
CC(C)OC(=O)C(C(=O)C(F)(F)F)c1cc(NS(=O)(=O)c2ccc3ccccc3c2)c2ccccc2c1O (stereo unspecified)	15.1 µM
CN(C)c1ccc(C(CNS(=O)(=O)c2ccc(F)c(F)c2)c2c[nH]c3ccccc23)cc1 (stereo unspecified)	13.4 µM
Cc1cccc(COCC(CC(C)C)N2CCN(C(=O)c3ccc(C(C)(C)C)cc3)CCC2=O)c1 (stereo unspecified)	14.7 µM
CC1CC(C)CN(C(=O)c2cc3cc(Br)cc(Br)c3o2)C1 (stereo unspecified)	13.7 µM

Query block: Which IC50 is listed for NS(=O)(=O)c1ccc(N2N=C(c3ccccc3)CC2c2ccc(F)cc2)cc1 (stereo unspecified) ?
Result block: 12 µM

Query block: Looking for the measured IC50 of `Cn1c(=O)cc(OCCCC(=O)N2CCN(c3ccccc3)CC2)c2ccccc21` , can you help?
Result block: > 25 µM (inactive)

Query block: Entry under review: `CCc1nnc(NC(=O)c2ccc(S(=O)(=O)N(CC(C)C)CC(C)C)cc2)o1` . Reported IC50?
Result block: 22.5 µM

Query block: Returns the measured IC50 for the input compound. Input: `COC(=O)c1cn(C(=O)OC)c2ccccc12`
Result block: > 25 µM (inactive)

Query block: Which IC50 value is on record for C/C(=N\N1CCCCC1c1cccnc1)c1c(O)n(C2CCCCC2)c(=S)[nH]c1=O (stereo unspecified) ?
Result block: > 25 µM (inactive)

Query block: Which measured IC50 value corresponds to `CCOC(=O)/C(=C/c1ccc(N2CCC(c3ccccc3)=N2)cc1)C(C)=O` ?
Result block: > 25 µM (inactive)
